target: CCL21 (CC chemokine ligand 21), truncated (Homo sapiens); assay: 2D 1H-15N HSQC NMR titration
Sequence (O00585 24-102): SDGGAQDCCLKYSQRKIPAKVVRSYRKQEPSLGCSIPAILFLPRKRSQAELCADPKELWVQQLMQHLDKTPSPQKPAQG
QUANTITY_KIND: Kd

input: # value lookup — system CCL21 (CC chemokine ligand 21), truncated (Homo sapiens), readout Kd, item N[C@@H](Cc1ccc(OS(=O)(=O)O)cc1)C(=O)O
output: ~38.9 mM

Origin of measurements: paper PMC5498006
